All figures here come from patent US20230134571A1.

The following binders are listed with their measured IC50 (µg/ml) with constrains values.
- target_or_system: HIV Env of isolate HIV-16055-2.3 (clade C) (HIV)
- method_summary: cell-based or functional assay

binder	IC50 (µg/ml) with constrains, µg/mL
ePGDM5 (antibody, V domains shown) VH: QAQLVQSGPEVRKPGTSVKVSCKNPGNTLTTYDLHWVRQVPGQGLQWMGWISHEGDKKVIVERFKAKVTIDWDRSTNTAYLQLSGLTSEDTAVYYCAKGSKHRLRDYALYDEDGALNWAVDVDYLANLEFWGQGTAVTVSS VL: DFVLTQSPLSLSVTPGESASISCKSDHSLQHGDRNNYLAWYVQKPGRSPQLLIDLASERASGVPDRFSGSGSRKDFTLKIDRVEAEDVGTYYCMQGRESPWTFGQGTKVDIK	0.002
PGDM1400 (antibody, V domains shown) VH: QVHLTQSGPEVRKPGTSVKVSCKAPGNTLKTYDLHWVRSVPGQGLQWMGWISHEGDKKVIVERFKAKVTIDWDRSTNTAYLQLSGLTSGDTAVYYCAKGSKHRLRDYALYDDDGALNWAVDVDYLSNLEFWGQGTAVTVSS VL: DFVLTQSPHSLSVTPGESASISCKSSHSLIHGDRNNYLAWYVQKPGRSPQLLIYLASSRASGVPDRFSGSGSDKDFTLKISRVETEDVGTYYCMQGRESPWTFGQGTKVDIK	0.003
ePGDM13 (antibody, V domains shown) VH: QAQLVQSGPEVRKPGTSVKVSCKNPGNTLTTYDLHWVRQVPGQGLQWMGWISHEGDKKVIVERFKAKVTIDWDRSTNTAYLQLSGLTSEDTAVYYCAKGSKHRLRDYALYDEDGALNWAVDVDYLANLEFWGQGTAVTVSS VL: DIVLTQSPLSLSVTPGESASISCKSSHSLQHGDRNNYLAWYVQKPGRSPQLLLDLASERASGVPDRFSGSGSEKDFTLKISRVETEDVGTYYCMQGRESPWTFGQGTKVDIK	0.003
ePGDM9 (antibody, V domains shown) VH: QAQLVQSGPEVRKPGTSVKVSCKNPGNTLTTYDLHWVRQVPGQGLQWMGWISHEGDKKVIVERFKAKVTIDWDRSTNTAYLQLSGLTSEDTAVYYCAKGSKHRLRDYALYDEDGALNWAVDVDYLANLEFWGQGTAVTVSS VL: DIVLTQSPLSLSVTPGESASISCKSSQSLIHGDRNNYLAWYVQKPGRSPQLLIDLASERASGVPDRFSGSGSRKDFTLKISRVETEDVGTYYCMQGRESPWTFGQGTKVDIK	0.001
